Provide the recorded Activity for the entries that follow.
- Species: Rattus norvegicus
- PROTOCOL_DETAILS: Positive allosteric modulation of GABAB receptor in rat cortical membranes assessed as potentiation of GABA-induced [35S]GTPgammaS binding at 2.5 uM after 30 mins by liquid scintillation counting analysis relative to GABA
- Format: functional, cell membranes
- RECORDED_CONDITIONS: Membrane
Response body: numeric value in %, unit text excluded.

Request: Given the entry CCc1c(C)sc(NC(=O)Oc2ccccc2)c1C(=O)OC , report its measured Activity.
Result: 3.9

Request: Given the entry CCc1c(C)sc(NC(=O)c2ccc(C(F)(F)F)cc2)c1C(=O)OC , report its measured Activity.
Result: 17.8

Request: Given the entry CCc1c(C)sc(NC(=O)C23CC4CC(CC(C4)C2)C3)c1C(=O)OC , report its measured Activity.
Result: 9.2

Request: Given the entry CCc1c(C)sc(NC(=O)c2ccc(C)cc2)c1C(=O)OC , report its measured Activity.
Result: 3.7

Request: Given the entry CCc1c(C)sc(NC(=O)c2ccc(C(C)(C)C)cc2)c1C(=O)OC , report its measured Activity.
Result: 19

Request: Given the entry COC(=O)c1c(NC(=O)c2ccc(OC)c(OC)c2)sc2c1CCCC2 , report its measured Activity.
Result: -4.1

---

- System: Mus musculus
- PROTOCOL_DETAILS: Hypnotic effect in DBA mouse assessed as reduction in pentobarbital-induced onset of loss of righting reflex at 100 mg/kg, ip incubated for 30 mins prior to pentobarbital-challenge (reference value: 60.0 +/- 0.0 min)
- Type: functional
- RECORDED_CONDITIONS: route intraperitoneal
Provide the recorded Time for the entries that follow.

Request: Given the entry CSc1nc(NC2CCCC2)c([N+](=O)[O-])c(NC2CCCC2)n1 , report its measured Time.
Result: 60 min

Request: Given the entry CCc1c(C)sc(NC(=O)c2ccc(Cl)cc2)c1C(=O)OC , report its measured Time.
Result: 51.8 min

Request: Given the entry CCc1c(C)sc(NC(=O)c2ccc(C)cc2)c1C(=O)OC , report its measured Time.
Result: 43.8 min

Request: Given the entry CCc1c(C)sc(NC(=O)c2ccc(C(F)(F)F)cc2)c1C(=O)OC , report its measured Time.
Result: 45.2 min

---

- PROTOCOL_DETAILS: Ratio of compound IC50 to COR627 IC50 for mouse NIH/3T3 cells
- Assay type: ADME, cell-based, NIH3T3
- RECORDED_CONDITIONS: read-out: Ratio IC50
Provide the recorded selectivity ratio for the entries that follow.
# print the numeric value only

Request: Given the entry N#Cc1c(NC(=O)C2CCCCC2)sc2c1CCCC2 , report its measured selectivity ratio.
Result: 4

Request: Given the entry CCc1c(C)sc(NC(=O)c2ccc(C(C)(C)C)cc2)c1C(=O)OC , report its measured selectivity ratio.
Result: 4

---

Provide the recorded Time for the entries that follow.
- Tested on: Mus musculus
- PROTOCOL_DETAILS: Hypnotic effect in DBA mouse assessed as increase in pentobarbital-induced duration of loss of righting reflex at 100 mg/kg, ip incubated for 30 mins prior to pentobarbital-challenge
- Assay type: functional
- RECORDED_CONDITIONS: route intraperitoneal
Response body: numeric value in min, unit text excluded.

Request: Given the entry CCc1c(C)sc(NC(=O)c2ccc(C)cc2)c1C(=O)OC , report its measured Time.
Result: 11.2

Request: Given the entry CSc1nc(NC2CCCC2)c([N+](=O)[O-])c(NC2CCCC2)n1 [GS-39783] , report its measured Time.
Result: 0

Request: Given the entry CCc1c(C)sc(NC(=O)c2ccc(C(F)(F)F)cc2)c1C(=O)OC , report its measured Time.
Result: 7

Request: Given the entry CCc1c(C)sc(NC(=O)c2ccc(Cl)cc2)c1C(=O)OC , report its measured Time.
Result: 4.8

Data provenance is ChEMBL document CHEMBL2346598.
